biological target: Tyrosine-protein kinase BTK (Homo sapiens)
Sequence (Q06187 whole entry): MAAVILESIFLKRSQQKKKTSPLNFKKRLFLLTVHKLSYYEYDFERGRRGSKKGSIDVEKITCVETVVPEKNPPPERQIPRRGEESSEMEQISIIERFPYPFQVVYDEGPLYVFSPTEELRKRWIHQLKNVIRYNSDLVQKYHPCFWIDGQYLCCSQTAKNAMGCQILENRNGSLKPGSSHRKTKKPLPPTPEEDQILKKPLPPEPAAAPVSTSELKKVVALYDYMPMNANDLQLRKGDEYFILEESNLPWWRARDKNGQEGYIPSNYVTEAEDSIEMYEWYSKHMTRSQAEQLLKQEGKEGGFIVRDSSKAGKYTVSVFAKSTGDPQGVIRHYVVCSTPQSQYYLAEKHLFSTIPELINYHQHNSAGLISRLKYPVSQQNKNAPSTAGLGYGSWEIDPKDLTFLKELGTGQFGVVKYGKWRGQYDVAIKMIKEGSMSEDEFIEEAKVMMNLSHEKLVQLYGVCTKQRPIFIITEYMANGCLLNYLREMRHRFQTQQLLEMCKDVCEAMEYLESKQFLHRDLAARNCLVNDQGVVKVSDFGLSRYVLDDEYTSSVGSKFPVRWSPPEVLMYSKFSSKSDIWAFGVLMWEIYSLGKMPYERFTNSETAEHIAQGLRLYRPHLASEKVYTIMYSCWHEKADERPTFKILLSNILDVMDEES
pIC50: −log10 of the molar value.
MEASUREMENT_KIND: pIC50

- Cn1cc(-c2nc3c(-c4ccc(CNc5nccc6c5OCCN6C(=O)OC(C)(C)C)c(F)c4)ccnc3[nH]2)cn1: < 5.30

All values here come from ChEMBL document CHEMBL5728678.
